Molecular target: T1, human GARP-TGF-β1 complex (recombinant complex of human GARP and latent human TGF-β1) (human, UniProt Q14392 20-627; P01137 30-278; P01137 279-390)
T1 construct: also called huGARP-TGF-β1; hGARP-TGF-β1
T1 sequence (Q14392 20-627 limits assumed, chain 1 of 3): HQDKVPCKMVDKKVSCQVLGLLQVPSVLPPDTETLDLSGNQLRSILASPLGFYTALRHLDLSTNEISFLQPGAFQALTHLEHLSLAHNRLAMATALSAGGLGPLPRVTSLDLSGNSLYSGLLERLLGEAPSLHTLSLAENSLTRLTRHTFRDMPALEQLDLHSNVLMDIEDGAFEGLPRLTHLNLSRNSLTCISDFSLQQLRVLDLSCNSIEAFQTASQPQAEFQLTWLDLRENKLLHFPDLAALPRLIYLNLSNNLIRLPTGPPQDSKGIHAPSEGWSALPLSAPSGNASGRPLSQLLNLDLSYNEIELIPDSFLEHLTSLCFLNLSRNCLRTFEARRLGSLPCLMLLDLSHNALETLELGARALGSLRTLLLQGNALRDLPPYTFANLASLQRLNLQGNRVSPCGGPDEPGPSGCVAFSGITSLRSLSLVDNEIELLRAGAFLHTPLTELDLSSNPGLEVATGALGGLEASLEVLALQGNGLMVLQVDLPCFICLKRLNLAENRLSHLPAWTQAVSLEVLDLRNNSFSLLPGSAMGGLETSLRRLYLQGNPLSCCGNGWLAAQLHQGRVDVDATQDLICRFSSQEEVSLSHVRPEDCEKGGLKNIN
T1 sequence (P01137 30-278 limits assumed, chain 2 of 3): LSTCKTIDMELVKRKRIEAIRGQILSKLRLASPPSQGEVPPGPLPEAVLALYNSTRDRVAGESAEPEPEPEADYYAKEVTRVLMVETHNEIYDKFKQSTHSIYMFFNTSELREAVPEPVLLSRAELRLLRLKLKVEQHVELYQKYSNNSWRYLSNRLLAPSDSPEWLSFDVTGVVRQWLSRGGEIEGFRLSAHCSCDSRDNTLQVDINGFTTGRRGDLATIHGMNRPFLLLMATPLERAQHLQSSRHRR
T1 sequence (P01137 279-390 limits assumed, chain 3 of 3): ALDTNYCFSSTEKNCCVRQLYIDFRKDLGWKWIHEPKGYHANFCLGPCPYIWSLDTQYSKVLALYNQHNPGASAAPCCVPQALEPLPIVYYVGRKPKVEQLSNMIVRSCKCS
Assay: SPR Biacore 3000, chip ~4000 RU hGARP-TGF-β; slope vs -20°C reference (=100%); sample stored 56 d at 5°C
Protocol: From the intermediate concentration of all samples at 1 mg/ml described above, an extra 1/250 dilution was done for SPR analysis to yield a final concentration of 4 μg/ml. This 1/250 dilution took place for all conditions in two steps: a) 5 μl (1 mg/ml)+120 μl HBS-EP (SPR buffer) and b) an extra 10× dilution (15 μl+135 μl HBS-EP). […] This was analyzed together with the stability samples to determine the slope of each curve after general fitting of the standards. […]

{"columns": ["Binder", "Activity on Biacore (%)"],
 "data": [
  ["39B6-ANK IgG4 S228P (antibody, V domains shown, Variant of 39B6-A in IgG4 S228P format; Positions are Kabat-type) VH: QVQLVQPGAEVRKPGASVKVSCKASGYRFTSYYIDWVRQAPGQGLEWMGRIDPEDAGTKYAQKFQGRVTMTADTSTSTVYVELSSLRSEDTAVYYCARNKWETVVVGDLMYEYEYWGQGTLVTVSS VL: DIQMTQSPSSLSASVGDRVTITCQASQSISSYLAWYQQKPGQAPKILIYGASRLKTGVPSRFSGSGSGTSFTLTISSLEPEDAATYYCQQYASVPVTFGQGTKVEIKR", 101],
  ["39B6-AVE IgG4 S228P (antibody, V domains shown, Variant of 39B6-A in IgG4 S228P format; Positions are Kabat-type) VH: QVQLVQPGAEVRKPGASVKVSCKASGYRFTSYYIDWVRQAPGQGLEWMGRIDPEDAGTKYAQKFQGRVTMTADTSTSTVYVELSSLRSEDTAVYYCARVEWETVVVGDLMYEYEYWGQGTLVTVSS VL: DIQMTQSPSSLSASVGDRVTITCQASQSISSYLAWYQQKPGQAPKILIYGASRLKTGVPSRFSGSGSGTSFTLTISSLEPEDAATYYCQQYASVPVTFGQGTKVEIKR", 96.9],
  ["39B6-ANR IgG4 S228P (antibody, V domains shown, Variant of 39B6-A in IgG4 S228P format; Positions are Kabat-type) VH: QVQLVQPGAEVRKPGASVKVSCKASGYRFTSYYIDWVRQAPGQGLEWMGRIDPEDAGTKYAQKFQGRVTMTADTSTSTVYVELSSLRSEDTAVYYCARNRWETVVVGDLMYEYEYWGQGTLVTVSS VL: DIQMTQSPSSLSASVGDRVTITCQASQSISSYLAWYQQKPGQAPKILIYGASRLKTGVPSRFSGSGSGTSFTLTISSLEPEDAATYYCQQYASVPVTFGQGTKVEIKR", 85.4],
  ["39B6-AYE (ARGX-115), IgG4 S228P (antibody, V domains shown) VH: QVQLVQPGAEVRKPGASVKVSCKASGYRFTSYYIDWVRQAPGQGLEWMGRIDPEDAGTKYAQKFQGRVTMTADTSTSTVYVELSSLRSEDTAVYYCARYEWETVVVGDLMYEYEYWGQGTLVTVSS VL: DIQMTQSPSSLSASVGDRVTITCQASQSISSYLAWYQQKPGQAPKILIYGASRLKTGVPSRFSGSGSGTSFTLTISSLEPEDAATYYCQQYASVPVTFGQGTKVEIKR", 104]
]}
